Biological target: Histone deacetylase 2 (Homo sapiens)
Sequence (Q92769 whole entry): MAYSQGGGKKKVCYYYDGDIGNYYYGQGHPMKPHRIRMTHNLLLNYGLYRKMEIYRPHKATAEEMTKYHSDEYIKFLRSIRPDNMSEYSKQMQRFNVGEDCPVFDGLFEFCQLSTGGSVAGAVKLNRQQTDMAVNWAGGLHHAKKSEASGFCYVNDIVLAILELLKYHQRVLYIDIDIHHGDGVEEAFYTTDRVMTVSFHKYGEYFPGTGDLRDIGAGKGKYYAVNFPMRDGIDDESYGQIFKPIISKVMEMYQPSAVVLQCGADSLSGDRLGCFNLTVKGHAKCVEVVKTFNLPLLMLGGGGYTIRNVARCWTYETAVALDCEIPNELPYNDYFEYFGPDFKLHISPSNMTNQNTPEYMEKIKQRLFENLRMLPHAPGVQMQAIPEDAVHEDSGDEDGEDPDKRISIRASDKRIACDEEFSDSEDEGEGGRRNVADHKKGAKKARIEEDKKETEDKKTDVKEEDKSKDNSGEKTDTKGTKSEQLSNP
Assay: Inhibition of human recombinant HDAC2 using Ac-Leu-Gly-Lys(Ac)-AMC as substrate by measuring fluorescence intensity incubated for 30 mins by microplate reader assay
QUANTITY_MEASURED: IC50 (µM)
A number alone suffices; assume µM.

Task: Request the reported IC50 associated with C=Cc1c(C)c2cc3nc(c(C(=O)OC)c4[nH]c(cc5nc(cc1[nH]2)C(C)=C5CC)c(C)c4C(=O)OC)[C@@H](CCC(=O)Nc1ccc(C(=O)Nc2ccccc2N)cc1)[C@@H]3C
Result: 2.65

* * *

Molecular target: Polyamine deacetylase HDAC10 (Homo sapiens, UniProt Q969S8)
Sequence (Q969S8 whole entry): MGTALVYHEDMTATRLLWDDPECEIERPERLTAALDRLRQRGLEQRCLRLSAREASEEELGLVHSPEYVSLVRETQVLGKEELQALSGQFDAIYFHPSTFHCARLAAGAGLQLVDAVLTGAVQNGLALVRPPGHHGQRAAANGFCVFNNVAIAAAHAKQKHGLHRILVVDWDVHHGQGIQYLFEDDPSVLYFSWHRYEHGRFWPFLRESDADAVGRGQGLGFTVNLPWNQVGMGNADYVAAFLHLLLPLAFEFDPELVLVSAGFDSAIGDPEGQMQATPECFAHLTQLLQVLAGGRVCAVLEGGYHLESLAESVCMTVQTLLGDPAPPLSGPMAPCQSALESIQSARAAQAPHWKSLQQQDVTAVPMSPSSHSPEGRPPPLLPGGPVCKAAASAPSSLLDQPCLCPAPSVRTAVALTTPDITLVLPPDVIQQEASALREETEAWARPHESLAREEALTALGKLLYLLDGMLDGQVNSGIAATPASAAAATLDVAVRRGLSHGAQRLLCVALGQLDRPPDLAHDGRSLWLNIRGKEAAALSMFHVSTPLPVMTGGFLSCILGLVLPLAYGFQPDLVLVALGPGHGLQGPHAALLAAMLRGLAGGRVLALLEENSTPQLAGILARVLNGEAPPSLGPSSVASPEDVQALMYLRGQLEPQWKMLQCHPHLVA
Test: Inhibition of human recombinant HDAC10 using Ac-Leu-Gly-Lys(Ac)-AMC as substrate by measuring fluorescence intensity incubated for 30 mins by microplate reader assay
QUANTITY_MEASURED: IC50

Task: Kindly state the measured IC50 obtained for C=Cc1c(C)c2cc3nc(c(C(=O)OC)c4[nH]c(cc5nc(cc1[nH]2)C(C)=C5CC)c(C)c4C(=O)OC)[C@@H](CCC(=O)Nc1ccc(C(=O)Nc2ccccc2N)cc1)[C@@H]3C with Polyamine deacetylase HDAC10 (Homo sapiens, UniProt Q969S8).
Result: > 100 µM

* * *

Biological target: Histone deacetylase 8 (Homo sapiens, UniProt Q9BY41)
Sequence (Q9BY41 whole entry): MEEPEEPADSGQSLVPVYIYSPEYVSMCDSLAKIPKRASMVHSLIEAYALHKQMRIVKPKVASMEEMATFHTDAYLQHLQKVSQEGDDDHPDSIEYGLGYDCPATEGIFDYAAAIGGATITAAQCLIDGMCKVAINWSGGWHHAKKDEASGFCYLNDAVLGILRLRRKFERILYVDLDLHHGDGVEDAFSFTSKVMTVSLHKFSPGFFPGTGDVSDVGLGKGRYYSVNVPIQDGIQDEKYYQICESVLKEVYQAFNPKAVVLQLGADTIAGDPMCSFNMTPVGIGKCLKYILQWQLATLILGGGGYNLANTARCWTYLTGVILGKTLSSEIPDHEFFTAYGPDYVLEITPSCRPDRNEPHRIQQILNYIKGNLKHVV
Assay: Inhibition of human recombinant HDAC8 using Ac-Leu-Gly-Lys(Ac)-AMC as substrate by measuring fluorescence intensity incubated for 30 mins by microplate reader assay
pIC50: −log10 of the molar value.
QUANTITY_MEASURED: pIC50

Task: Which value of pIC50 has been reported for C=Cc1c(C)c2cc3nc(c(C(=O)OC)c4[nH]c(cc5nc(cc1[nH]2)C(C)=C5CC)c(C)c4C(=O)OC)[C@@H](CCC(=O)Nc1ccc(C(=O)Nc2ccccc2N)cc1)[C@@H]3C in the records?
Result: < 4.00

* * *

Tested on: A549
Experiment: Dark toxicity in human A549 cells assessed as reduction in cell viability incubated under dark for 48 hrs measured after 48 hrs by CCK8 assay
Type: functional, cell-based
Settings: A549, 48 h
QUANTITY_MEASURED: pIC50
Quick note: pIC50 values are minus log10 of concentrations in mol/L.

Task: Which pIC50 is reported for this compound? C=Cc1c(C)c2cc3nc(c(C(=O)OC)c4[nH]c(cc5nc(cc1[nH]2)C(C)=C5CC)c(C)c4C(=O)OC)[C@@H](CCC(=O)Nc1ccc(C(=O)NO)cc1)[C@@H]3C
Result: 6.03

Task: Need pIC50 of C=Cc1c(C)c2cc3nc(cc4[nH]c(cc5nc(cc1[nH]2)C(C)=C5CC)c(C)c4C(=O)OC)[C@@H](CCC(=O)Nc1ccc(C(=O)NO)cc1)[C@@H]3C , thanks.
Result: 5.03

Now for a further compound.
Task: Bench note: what pIC50 did C=Cc1c(C)c2cc3nc(c(C(=O)OC)c4[nH]c(cc5nc(cc1[nH]2)C(C)=C5CC)c(C)c4C(=O)OC)[C@@H](CCC(=O)NCCCC(=O)Nc1ccccc1N)[C@@H]3C show?
Result: 5.43

* * *

Target: Histone deacetylase 1 (Homo sapiens, UniProt Q13547)
Sequence (Q13547 whole entry): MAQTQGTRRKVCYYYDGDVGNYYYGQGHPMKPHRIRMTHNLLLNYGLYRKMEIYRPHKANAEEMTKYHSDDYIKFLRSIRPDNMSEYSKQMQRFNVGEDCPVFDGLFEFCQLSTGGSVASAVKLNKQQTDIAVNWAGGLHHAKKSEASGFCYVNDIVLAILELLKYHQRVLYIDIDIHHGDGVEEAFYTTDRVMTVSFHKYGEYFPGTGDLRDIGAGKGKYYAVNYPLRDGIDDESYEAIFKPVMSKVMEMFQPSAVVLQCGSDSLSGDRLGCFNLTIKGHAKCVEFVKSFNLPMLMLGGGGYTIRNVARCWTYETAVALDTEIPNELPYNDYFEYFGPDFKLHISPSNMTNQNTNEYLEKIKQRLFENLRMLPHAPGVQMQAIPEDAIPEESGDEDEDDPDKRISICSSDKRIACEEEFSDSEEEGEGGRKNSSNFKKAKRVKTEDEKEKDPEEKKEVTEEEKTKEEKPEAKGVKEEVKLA
Test: Inhibition of human recombinant HDAC1 using Ac-Leu-Gly-Lys(Ac)-AMC as substrate by measuring fluorescence intensity incubated for 30 mins by microplate reader assay
QUANTITY_MEASURED: IC50 (µM)
Only the number, expressed in µM, is required.

Task: What measured IC50 goes with C=Cc1c(C)c2cc3nc(c(C(=O)OC)c4[nH]c(cc5nc(cc1[nH]2)C(C)=C5CC)c(C)c4C(=O)OC)[C@@H](CCC(=O)Nc1ccc(C(=O)NO)cc1)[C@@H]3C ?
Result: 11

Further cases:
Task: Bench note: what IC50 did C=Cc1c(C)c2cc3nc(c(C(=O)OC)c4[nH]c(cc5nc(cc1[nH]2)C(C)=C5CC)c(C)c4C(=O)OC)[C@@H](CCC(=O)NCCCCCC(=O)Nc1ccccc1N)[C@@H]3C show?
Result: 90

Task: Fill blank: measured IC50 of the molecule C=Cc1c(C)c2cc3nc(c(C(=O)OC)c4[nH]c(cc5nc(cc1[nH]2)C(C)=C5CC)c(C)c4C(=O)OC)[C@@H](CCC(=O)NCCCCCC(=O)NO)[C@@H]3C is ____.
Result: 88

Task: Which IC50 value belongs to C=Cc1c(C)c2cc3nc(c(C(=O)OC)c4[nH]c(cc5nc(cc1[nH]2)C(C)=C5CC)c(C)c4C(=O)OC)[C@@H](CCC(=O)NCCCC(=O)NO)[C@@H]3C ?
Result: 40

Task: Form field: reported IC50 of C=Cc1c(C)c2cc3nc(c(C(=O)OC)c4[nH]c(cc5nc(cc1[nH]2)C(C)=C5CC)c(C)c4C(=O)OC)[C@@H](CCC(=O)NCCCCC(=O)Nc1ccccc1N)[C@@H]3C
Result: 81

Task: Which IC50 reading was recorded for the molecule C=Cc1c(C)c2cc3nc(c(C(=O)OC)c4[nH]c(cc5nc(cc1[nH]2)C(C)=C5CC)c(C)c4C(=O)OC)[C@@H](CCC(=O)NO)[C@@H]3C ?
Result: 79

Task: Which IC50 value is on record for C=Cc1c(C)c2cc3nc(c(C(=O)OC)c4[nH]c(cc5nc(cc1[nH]2)C(C)=C5CC)c(C)c4C(=O)OC)[C@@H](CCC(=O)NCCCCC(=O)NO)[C@@H]3C ?
Result: 49

* * *

Biological target: Histone deacetylase 3 (Homo sapiens)
Sequence (O15379 whole entry): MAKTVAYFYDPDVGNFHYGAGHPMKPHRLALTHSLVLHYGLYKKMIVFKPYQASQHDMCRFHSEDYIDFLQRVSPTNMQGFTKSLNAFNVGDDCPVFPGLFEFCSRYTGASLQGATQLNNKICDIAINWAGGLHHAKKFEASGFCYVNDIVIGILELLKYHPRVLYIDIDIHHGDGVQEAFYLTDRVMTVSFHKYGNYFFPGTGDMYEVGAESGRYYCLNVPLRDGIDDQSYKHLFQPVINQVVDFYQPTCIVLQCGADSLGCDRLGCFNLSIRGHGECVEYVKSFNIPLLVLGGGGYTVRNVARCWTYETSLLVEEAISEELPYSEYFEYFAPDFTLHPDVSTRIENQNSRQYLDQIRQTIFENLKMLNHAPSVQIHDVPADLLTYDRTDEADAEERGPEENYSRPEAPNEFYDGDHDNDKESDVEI
Experiment: Inhibition of human recombinant HDAC3 using Ac-Leu-Gly-Lys(Ac)-AMC as substrate by measuring fluorescence intensity incubated for 30 mins by microplate reader assay
QUANTITY_MEASURED: pIC50
On this scale, pIC50 is minus log10 of a concentration expressed in M (mol/L).

Task: Given the molecule C=Cc1c(C)c2cc3nc(c(C(=O)OC)c4[nH]c(cc5nc(cc1[nH]2)C(C)=C5CC)c(C)c4C(=O)OC)[C@@H](CCC(=O)Nc1ccc(C(=O)Nc2ccccc2N)cc1)[C@@H]3C , what is its reported pIC50?
Result: 4.14

* * *

Test system: A549
Assay: Dark toxicity in human A549 cells assessed as reduction in cell viability incubated under dark for 48 hrs measured after 48 hrs by CCK8 assay
Type: functional, cell-based
Conditions: A549, 48 h
Measured IC50 of individual entries
Use nM as the unit, but write only the number.

A selection of reference data follows.
Task: Consider the compound C=Cc1c(C)c2cc3nc(c(CC(=O)N[C@@H](CC(=O)O)C(=O)O)c4[nH]c(cc5nc(cc1[nH]2)C(C)=C5CC)c(C)c4C(=O)O)[C@@H](CCC(=O)O)[C@@H]3C and give its measured IC50.
Result: 181000

Task: If you can, please state the reported IC50 value of C=Cc1c(C)c2cc3nc(c(C(=O)OC)c4[nH]c(cc5nc(cc1[nH]2)C(C)=C5CC)c(C)c4C(=O)OC)[C@@H](CCC(=O)Nc1ccc(C(=O)Nc2ccccc2N)cc1)[C@@H]3C .
Result: 300

Task: Field request: IC50 | item: C=Cc1c(C)c2cc3nc(c(C(=O)OC)c4[nH]c(cc5nc(cc1[nH]2)C(C)=C5CC)c(C)c4C(=O)OC)[C@@H](CCC(=O)NCCCC(=O)NO)[C@@H]3C
Result: 1840

Task: Fill in the blank: the reported IC50 of C=Cc1c(C)c2cc3nc(c(C(=O)OC)c4[nH]c(cc5nc(cc1[nH]2)C(C)=C5CC)c(C)c4C(=O)OC)[C@@H](CCC(=O)NCCCCCC(=O)NO)[C@@H]3C is ____.
Result: 1360

--- query ---
Task: Endpoint output: IC50 of C=Cc1c(C)c2cc3nc(c(C(=O)OC)c4[nH]c(cc5nc(cc1[nH]2)C(C)=C5CC)c(C)c4C(=O)OC)[C@@H](CCC(=O)NCCCCC(=O)NO)[C@@H]3C . Value?
Result: 1510
